# Measured target: T1, anti-CD28 Fab (SEQ ID NOs: 202, 203)
# T1 construct: biotinylated and captured on neutravidin coated plates in the phage ELISA
# T1 sequence (VH, as listed by the source, chain 1 of 2): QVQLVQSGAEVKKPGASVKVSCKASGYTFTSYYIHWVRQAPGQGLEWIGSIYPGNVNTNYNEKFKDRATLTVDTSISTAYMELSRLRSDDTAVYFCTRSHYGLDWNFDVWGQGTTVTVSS
# T1 sequence (VL, as listed by the source, chain 2 of 2): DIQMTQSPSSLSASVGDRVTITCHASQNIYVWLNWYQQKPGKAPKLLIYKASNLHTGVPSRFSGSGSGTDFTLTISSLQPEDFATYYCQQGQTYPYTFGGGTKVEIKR
# Experiment summary: phage binding ELISA; biotinylated Fab on neutravidin plate;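 further: clonal phage supernatants added to Fab wells pretreated with CD28 antigen or with blocking buffer only, bound phage read out via HRP-linked anti-M13 antibody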
Measured endpoint: Anti-CD28 Fab (SEQ ID NOs: 202, 203) signal
One number for each entry.

{"Binder": "YCEGHKPEYMQKCL [Phage-447]", "Observed value": 1.69}
{"Binder": "YCEGHLAVYMQKCL [Phage-301]", "Observed value": 1.91}
{"Binder": "YCDGHIDEYLQKCL [Phage-322]", "Observed value": 1.88}

Give Anti-CD28 Fab (SEQ ID NOs: 202, 203) signal for all binders that follow.
1. YCAGHLPEYLSKCL [Phage-345]
2. YCDGHEPQYLEKCL [Phage-308]
3. YCDGHVQEYMQKCL [Phage-397]
4. YCEGHMSEYMAKCL [Phage-325]
5. YCDGHSLQYMDKCL [Phage-405]

*A*
1. 1.84
2. 1.9
3. 1.76
4. 1.88
5. 1.75

Source of measurements: patent US20260274955A1
